# Test name: Quantitative High-Throughput drug screen in 47 multiple myeloma cell lines against the NCATS MIPE library collection: AMO1_DSMZ cell viability assay (AID 1918927; note: nearly all actives have a fitted effect of over 30% in size)
# Settings: AMO1 myeloma cells viability, CellTiter-Glo ATP luminescence, 48 h; series mostly up to 45.8 µM
Records with an inconclusive call do not appear. The source made the active and inactive calls. Calls come from the whole dose curve; as a rule, active = well fitted cell-killing curve with a large enough effect; inconclusive = small, poorly fitted or top-dose-only effect, or effect the other way; inactive = no such curve, though single readings can be large or run the other way.
Give your call using only these classes: 1 (active), 0 (inactive)

Compound: NCCCCNCCCN
Label: 0

Which outcome did this test record for the compound O=C(O)c1cc(=O)c2c(OCC(O)COc3cccc4oc(C(=O)O)cc(=O)c34)cccc2o1 ?
0

Which outcome did this test record for the compound Cc1ccc(S(=O)(=O)NC(=O)NN2CC3CCCC3C2)cc1 (stereo unspecified) ?
1

Which outcome did this test record for the compound O=C(OC1C[C@H]2CC[C@@H](C1)[N+]21CCCC1)C(O)(c1ccccc1)c1ccccc1 (stereo partly specified) ?
0

Which outcome did this test record for the compound COCCCOc1ccnc(CS(=O)c2nc3ccccc3[nH]2)c1C (stereo unspecified) ?
0

Which outcome did this test record for the compound COC(=O)C1=C(C)NC(C)=C(C(=O)OC(C)C)C1c1cccc2nonc12 (stereo unspecified) ?
0

---

# System: P93_24
# Test name: qHTS profiling for inhibitors of Plasmodium falciparum proliferation (AID 504749); note: nearly all actives have a fitted effect of over 60% in size
# Settings: P. falciparum in erythrocytes, SYBR Green DNA, 72 h; series mostly up to 28.7 µM
Records with an inconclusive call do not appear. Activity calls are given as the source filed them. Calls come from the whole dose curve; as a rule, active = well fitted inhibition curve with a large enough effect; inconclusive = small, poorly fitted or top-dose-only effect; inactive = flat fitted curve, though single readings scatter.
Give your call using only these classes: TRUE = active, FALSE = inactive

// known answers, use as guide
Compound: Nc1cccc2c1CN(C1CCC(=O)NC1=O)C2=O (centres undefined)
Label: FALSE
--
Compound: NNc1nncc2ccccc12
Label: TRUE
--
Compound: COC1=C(OC)C(=O)C(CCCCCCCCCCO)=C(C)C1=O
Label: FALSE
--
Compound: O=C(CS(=O)Cc1ccco1)NCC=CCOc1cc(CN2CCCCC2)ccn1 (centres undefined)
Label: FALSE
--
Compound: Oc1ccc(OCc2ccccc2)cc1
Label: FALSE

Which outcome did this test record for the compound Cc1cc2c(s1)Nc1ccccc1N=C2N1CCN(C)CC1 ?
FALSE

Which outcome did this test record for the compound N[C@@H](Cc1cc(I)c(Oc2cc(I)c(O)c(I)c2)c(I)c1)C(=O)O ?
FALSE

Which outcome did this test record for the compound Nc1nc(Cl)nc2c1ncn2[C@H]1C[C@H](O)[C@@H](CO)O1 ?
FALSE

Which outcome did this test record for the compound CCOC(=O)c1c(C)n(C)c2ccc(O)cc12 ?
FALSE

Which outcome did this test record for the compound Nc1ccc(S(N)(=O)=O)cc1 ?
FALSE

Which outcome did this test record for the compound Cn1c(NCCN(CCO)CCCc2ccc([N+](=O)[O-])cc2)cc(=O)n(C)c1=O ?
FALSE

Which outcome did this test record for the compound CC(C)[C@H](N)C(=O)OCCOCn1cnc2c(=O)[nH]c(N)nc21 ?
FALSE

Which outcome did this test record for the compound Cc1cc(=O)c2c(O)c3c(O)cc(=O)c4c3c3c(cc(O)c1c23)C(C)(C)C=4O ?
TRUE

Which outcome did this test record for the compound C[C@H](Cn1cnc2c(N)ncnc21)OCP(=O)(O)O ?
FALSE

Which outcome did this test record for the compound Cc1c(C(=O)NN2CCCCC2)nn(-c2ccc(Cl)cc2Cl)c1-c1ccc(Cl)cc1 ?
TRUE

Which outcome did this test record for the compound CCN(CCO)CCCC(C)Nc1ccnc2cc(Cl)ccc12 (centres undefined) ?
FALSE

Which outcome did this test record for the compound CC1=C(C)C(=O)C(C(CCCCCC(=O)O)c2ccccc2)=C(C)C1=O (centres undefined) ?
FALSE

Which outcome did this test record for the compound COC(=O)C1=C(C)NC(C)=C(C(=O)OCCCN2CCC(c3ccccc3)(c3ccccc3)CC2)C1c1cccc([N+](=O)[O-])c1 (centres undefined) ?
TRUE

Which outcome did this test record for the compound O=C1CCc2ccc(OCCCCN3CCN(c4cccc(Cl)c4Cl)CC3)cc2N1 ?
TRUE

---

# System: DIV17
# Test name: qHTS profiling for inhibitors of Plasmodium falciparum proliferation (AID 504749); note: nearly all actives have a fitted effect of over 60% in size
# Settings: P. falciparum in erythrocytes, SYBR Green DNA, 72 h; series mostly up to 28.7 µM
Inconclusive results are not listed. The source made the active and inactive calls. The call rests on the fitted dose curve; in most records, active means well fitted inhibition curve with a large enough effect; inconclusive means small, poorly fitted or top-dose-only effect; inactive means flat fitted curve, though single readings scatter. Peptide text beside a SMILES is read from it.
Give your call using only these classes: y for active, n for inactive

// known answers, use as guide
Compound: Cn1c(NCCN(CCO)CCCc2ccc([N+](=O)[O-])cc2)cc(=O)n(C)c1=O
Label: n
--
Compound: O=C(NCCO[N+](=O)[O-])c1cccnc1
Label: n
--
Compound: Nc1ccc(S(N)(=O)=O)cc1
Label: n
--
Compound: Clc1ccc(C(Cn2ccnc2)OCc2ccsc2Cl)c(Cl)c1 (stereo unspecified)
Label: y
--
Compound: COC(=O)[C@H](Cc1ccccc1)NC(=O)[C@@H](N)CC(=O)O (H-Asp-Phe-OMe)
Label: n
--
Compound: Cc1ccc(NC(=O)c2ccc(CN3CCN(C)CC3)cc2)cc1Nc1nccc(-c2cccnc2)n1
Label: y

Which outcome did this test record for the compound Cc1cc(=O)oc2cc(O)ccc12 ?
n

Which outcome did this test record for the compound Cc1cc2c(s1)Nc1ccccc1N=C2N1CCN(C)CC1 ?
n

Which outcome did this test record for the compound CCN(CC)CCOc1ccc(Cc2ccccc2)cc1 ?
n

Which outcome did this test record for the compound N[C@@H](Cc1cc(I)c(Oc2cc(I)c(O)c(I)c2)c(I)c1)C(=O)O ?
n

Which outcome did this test record for the compound C=C(c1ccc(C(=O)O)cc1)c1cc2c(cc1C)C(C)(C)CCC2(C)C ?
n

---

# System: CP217
# Test name: qHTS profiling for inhibitors of Plasmodium falciparum proliferation (AID 504749); note: nearly all actives have a fitted effect of over 60% in size
# Settings: P. falciparum in erythrocytes, SYBR Green DNA, 72 h; series mostly up to 28.7 µM
Records with an inconclusive call do not appear. Activity calls are given as the source filed them. Calls come from the whole dose curve; as a rule, active = well fitted inhibition curve with a large enough effect; inconclusive = small, poorly fitted or top-dose-only effect; inactive = flat fitted curve, though single readings scatter.
Give your call using only these classes: yes (1) = active, no (0) = inactive

Molecule: CC(S)C(=O)NCC(=O)O (stereo unspecified)
Label: no (0)
--
Molecule: Nc1nc(Cl)nc2c1ncn2[C@H]1C[C@H](O)[C@@H](CO)O1
Label: no (0)
--
Molecule: CN(C)CCc1c[nH]c2ccc(Cn3cncn3)cc12
Label: no (0)

Which outcome did this test record for the molecule CCN(CC)CCOc1ccc(Cc2ccccc2)cc1 ?
no (0)

Which outcome did this test record for the molecule Cc1ncc([N+](=O)[O-])n1CC(C)O (stereo unspecified) ?
no (0)

Which outcome did this test record for the molecule CCC(C)(Oc1ccc(C2(c3ccc(OC(C)(CC)C(=O)O)cc3)CCCCC2)cc1)C(=O)O (stereo unspecified) ?
no (0)

Which outcome did this test record for the molecule COc1ccc2cc([C@H](C)C(=O)O)ccc2c1 ?
no (0)

Which outcome did this test record for the molecule CC1(C)NC(=O)N(c2ccc([N+](=O)[O-])c(C(F)(F)F)c2)C1=O ?
no (0)

Which outcome did this test record for the molecule CCCCCCCCCCCCCCCCCCCCCCO ?
no (0)

Which outcome did this test record for the molecule CCOC(=O)c1c(C)n(C)c2ccc(O)cc12 ?
no (0)

Which outcome did this test record for the molecule CCCCc1ccc2nc(NC(=O)OC)[nH]c2c1 ?
no (0)

Which outcome did this test record for the molecule Nc1cccc2c1CN(C1CCC(=O)NC1=O)C2=O (stereo unspecified) ?
no (0)

Which outcome did this test record for the molecule Cc1c(OCC(F)(F)F)ccnc1CS(=O)c1nc2ccccc2[nH]1 (stereo unspecified) ?
no (0)

Which outcome did this test record for the molecule O=C(O)c1cn(-c2ccc(F)cc2)c2cc(N3CCNCC3)c(F)cc2c1=O ?
no (0)

Which outcome did this test record for the molecule CNC[C@@H](O)[C@@H](O)[C@H](O)[C@H](O)CO ?
no (0)

Which outcome did this test record for the molecule CS(=O)(=O)OCCCCOS(C)(=O)=O ?
no (0)

Which outcome did this test record for the molecule CC[C@]1(O)C[C@H]2CN(CCc3c([nH]c4ccccc34)[C@@](C(=O)OC)(c3cc4c(cc3OC)N(C=O)[C@H]3[C@@](O)(C(=O)OC)[C@H](OC(C)=O)[C@]5(CC)C=CCN6CC[C@]43[C@@H]65)C2)C1 ?
yes (1)

Which outcome did this test record for the molecule COc1ccc(C2(C#N)CCC(C(=O)O)CC2)cc1OC1CCCC1 (stereo unspecified) ?
no (0)

Which outcome did this test record for the molecule Cc1cc2c(s1)Nc1ccccc1N=C2N1CCN(C)CC1 ?
no (0)

Which outcome did this test record for the molecule Nc1cc(C(Cl)=C(Cl)Cl)c(S(N)(=O)=O)cc1S(N)(=O)=O ?
no (0)

---

# Tested on: DIV14
# Test name: qHTS profiling for inhibitors of Plasmodium falciparum proliferation (AID 504749); note: nearly all actives have a fitted effect of over 60% in size
# Settings: P. falciparum in erythrocytes, SYBR Green DNA, 72 h; series mostly up to 28.7 µM
Inconclusive results are not listed. Active and inactive are the calls of the source. Calls follow the shape of the dose curve; as a rule, active = well fitted inhibition curve with a large enough effect; inconclusive = small, poorly fitted or top-dose-only effect; inactive = flat fitted curve, though single readings scatter. Peptide text beside a SMILES is read from it.
Give your call using only these classes: TRUE = active, FALSE = inactive

Molecule: O=C1c2ccccc2-c2n[nH]c3cccc1c23
Target desc: DIV14
Label: FALSE
--
Molecule: COc1ccc2cc([C@H](C)C(=O)O)ccc2c1
Target desc: DIV14
Label: FALSE
--
Molecule: c1ccc2[nH]c(-c3cscn3)nc2c1
Target desc: DIV14
Label: FALSE
--
Molecule: C[C@]12CCC(=O)C=C1CC[C@@H]1[C@H]2[C@@H](O)C[C@@]2(C)[C@H]1CC[C@]2(O)C(=O)CO
Target desc: DIV14
Label: FALSE

Which outcome did this test record for the molecule CC(S)C(=O)NCC(=O)O (stereo not drawn) ?
FALSE

Which outcome did this test record for the molecule Cc1cccc(C)c1OCC(=O)N[C@@H](Cc1ccccc1)[C@@H](O)C[C@H](Cc1ccccc1)NC(=O)[C@H](C(C)C)N1CCCNC1=O ?
TRUE

Which outcome did this test record for the molecule O=C1CCc2ccc(OCCCCN3CCN(c4cccc(Cl)c4Cl)CC3)cc2N1 ?
FALSE

Which outcome did this test record for the molecule C[C@H](Cn1cnc2c(N)ncnc21)OCP(=O)(O)O ?
FALSE

Which outcome did this test record for the molecule Cc1cc(=O)c2c(O)c3c(O)cc(=O)c4c3c3c(cc(O)c1c23)C(C)(C)C=4O ?
TRUE

Which outcome did this test record for the molecule CCCOc1ccc2nc(NC(=O)OC)[nH]c2c1 ?
FALSE

Which outcome did this test record for the molecule N[C@@H](Cc1cc(I)c(Oc2cc(I)c(O)c(I)c2)c(I)c1)C(=O)O ?
FALSE

Which outcome did this test record for the molecule N=C(N)c1ccc2cc(OC(=O)c3ccc(N=C(N)N)cc3)ccc2c1 ?
TRUE

Which outcome did this test record for the molecule O=C(O)c1cc(=O)c2c(OCC(O)COc3cccc4oc(C(=O)O)cc(=O)c34)cccc2o1 ?
FALSE

Which outcome did this test record for the molecule O=C(NC(Cc1cc(=O)[nH]c2ccccc12)C(=O)O)c1ccc(Cl)cc1 (stereo not drawn) ?
FALSE

Which outcome did this test record for the molecule O=C(CS(=O)Cc1ccco1)NCC=CCOc1cc(CN2CCCCC2)ccn1 (stereo not drawn) ?
FALSE

Which outcome did this test record for the molecule CC1(C)CCC(C)(C)c2cc(NC(=O)c3ccc(C(=O)O)cc3)ccc21 ?
FALSE

Which outcome did this test record for the molecule COC(=O)[C@H](Cc1ccccc1)NC(=O)[C@@H](N)CC(=O)O (H-Asp-Phe-OMe) ?
FALSE

Which outcome did this test record for the molecule COc1ccc(C2(C#N)CCC(C(=O)O)CC2)cc1OC1CCCC1 (stereo not drawn) ?
FALSE

Which outcome did this test record for the molecule O=C(O)c1cccc(-c2noc(-c3ccccc3F)n2)c1 ?
FALSE

Which outcome did this test record for the molecule CN1CCC(=C2c3ccccc3CCc3sccc32)CC1 ?
TRUE

Which outcome did this test record for the molecule CN(C)CCc1c[nH]c2ccc(Cn3cncn3)cc12 ?
FALSE

Which outcome did this test record for the molecule CCCCCCCCCCCCCCCCCCCCCCO ?
FALSE

Which outcome did this test record for the molecule COc1cc2c(cc1OC)C1CC(=O)C(CC(C)C)CN1CC2 (stereo not drawn) ?
FALSE
